Target: Calpain I (Homo sapiens, UniProt P07384)
Construct: Calpain I was purified from human red blood cells; from tissue; host or cells: human red blood cells (packed, outdated)
Sequence (P07384 whole entry): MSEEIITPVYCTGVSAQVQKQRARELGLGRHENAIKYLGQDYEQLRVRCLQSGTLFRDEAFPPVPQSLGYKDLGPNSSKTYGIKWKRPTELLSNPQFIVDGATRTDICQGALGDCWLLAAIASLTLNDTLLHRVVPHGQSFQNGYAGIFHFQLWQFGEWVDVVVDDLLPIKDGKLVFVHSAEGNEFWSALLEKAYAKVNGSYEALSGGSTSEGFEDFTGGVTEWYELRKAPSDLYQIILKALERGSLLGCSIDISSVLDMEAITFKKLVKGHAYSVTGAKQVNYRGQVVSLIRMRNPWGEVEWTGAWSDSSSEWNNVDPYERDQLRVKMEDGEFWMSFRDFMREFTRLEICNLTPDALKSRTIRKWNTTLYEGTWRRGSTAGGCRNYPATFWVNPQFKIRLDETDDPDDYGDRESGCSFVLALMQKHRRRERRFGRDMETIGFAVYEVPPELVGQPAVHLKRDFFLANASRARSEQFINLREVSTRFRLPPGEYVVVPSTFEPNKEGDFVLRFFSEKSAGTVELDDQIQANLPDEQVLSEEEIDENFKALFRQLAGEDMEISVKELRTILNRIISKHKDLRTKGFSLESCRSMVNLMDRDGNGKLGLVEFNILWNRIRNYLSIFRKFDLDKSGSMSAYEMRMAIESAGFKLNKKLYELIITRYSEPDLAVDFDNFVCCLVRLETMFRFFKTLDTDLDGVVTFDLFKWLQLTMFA
Sequence (P04632 whole entry partner): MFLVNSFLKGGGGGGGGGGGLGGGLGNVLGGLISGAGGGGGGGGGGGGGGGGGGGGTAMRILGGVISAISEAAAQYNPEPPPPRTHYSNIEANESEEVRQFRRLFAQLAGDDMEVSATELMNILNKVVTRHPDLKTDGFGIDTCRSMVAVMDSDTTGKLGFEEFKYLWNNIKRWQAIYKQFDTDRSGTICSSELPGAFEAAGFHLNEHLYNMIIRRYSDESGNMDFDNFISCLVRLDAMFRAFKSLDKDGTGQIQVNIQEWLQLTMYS
Experiment: Inhibition and rate of inactivation of calpain I (Succ-Leu-Tyr-MNA hydrolysis)
Format: biochemical
Conditions: mean of three or more independent analyses, corrected for substrate, k2 = kapp(1+[S]/Km), read-out: k2 (second order rate constant of inactivation), A = Calpain I
List of kinact/KI values.

compound	testSystem	kinact/KI (M⁻¹ s⁻¹)
CC(C)C[C@H](NC(=O)OCc1ccccc1)C(=O)N[C@@H](Cc1ccccc1)C(=O)COn1nnc2cc(Cl)ccc21	Calpain I (Homo sapiens, UniProt P07384)	164000
CC[C@H](C(=O)C[C@@H](CC(C)C)C(=O)N[C@@H](Cc1ccccc1)C(=O)COn1nnc2ccccc21)c1ccccc1	Calpain I (Homo sapiens, UniProt P07384)	3000
CCc1cc2c(cc1Cl)nnn2OCC(=O)[C@H](Cc1ccccc1)NC(=O)[C@H](CC(C)C)NC(=O)OCc1ccccc1	Calpain I (Homo sapiens, UniProt P07384)	84000
CC[C@H](NC(=O)[C@H](CC(C)C)NC(=O)OCc1ccccc1)C(=O)COn1nnc2ccccc21	Calpain I (Homo sapiens, UniProt P07384)	63000
Cc1ccc2nnn(OCC(=O)[C@H](Cc3ccccc3)NC(=O)[C@H](CC(C)C)NC(=O)OCc3ccccc3)c2c1	Calpain I (Homo sapiens, UniProt P07384)	112000
COc1ccc2nnn(OCC(=O)[C@H](Cc3ccccc3)NC(=O)[C@H](CC(C)C)NC(=O)OCc3ccccc3)c2c1	Calpain I (Homo sapiens, UniProt P07384)	125000
Cc1ccc2c(c1)nnn2OCC(=O)[C@H](Cc1ccccc1)NC(=O)[C@H](CC(C)C)NC(=O)OCc1ccccc1	Calpain I (Homo sapiens, UniProt P07384)	230000
CC(C)C[C@H](NC(=O)OCc1ccccc1)C(=O)N[C@@H](Cc1ccccc1)C(=O)COn1nnc2ccc(Cl)cc21	Calpain I (Homo sapiens, UniProt P07384)	101000
CC(C)C[C@H](NC(=O)OCc1ccccc1)C(=O)N[C@@H](Cc1ccccc1)C(=O)COn1nnc2cc(Cl)c(Cl)cc21	Calpain I (Homo sapiens, UniProt P07384)	65000
CC(C)C[C@H](NC(=O)OCc1ccccc1)C(=O)N[C@@H](Cc1ccccc1)C(=O)COn1nnc2c(Cl)c(Cl)ccc21	Calpain I (Homo sapiens, UniProt P07384)	64000
CC(C)C[C@H](NC(=O)OCc1ccccc1)C(=O)N[C@@H](Cc1ccccc1)C(=O)COn1nnc2c(Cl)cccc21	Calpain I (Homo sapiens, UniProt P07384)	157000
Cc1cccc2c1nnn2OCC(=O)[C@H](Cc1ccccc1)NC(=O)[C@H](CC(C)C)NC(=O)OCc1ccccc1	Calpain I (Homo sapiens, UniProt P07384)	46000
CC(C)C[C@H](NC(=O)OCc1ccccc1)C(=O)N[C@@H](Cc1ccccc1)C(=O)COn1nnc2cccnc21	Calpain I (Homo sapiens, UniProt P07384)	184000
CC(C)C[C@H](NC(=O)OCc1ccccc1)C(=O)N[C@@H](Cc1ccccc1)C(=O)COn1cnc2ccccc21	Calpain I (Homo sapiens, UniProt P07384)	4000
CC(C)C[C@H](NC(=O)OCc1ccccc1)C(=O)N[C@@H](Cc1ccccc1)C(=O)COn1nnc2ccccc21	Calpain I (Homo sapiens, UniProt P07384)	150000
CC(C)C[C@H](NC(=O)OCc1ccccc1)C(=O)N[C@@H](Cc1ccccc1)C(=O)COn1nnc2ccc(Cl)cc2c1=O	Calpain I (Homo sapiens, UniProt P07384)	180000
CC(C)C[C@H](NC(=O)OCc1ccccc1)C(=O)N[C@@H](Cc1ccccc1)C(=O)COn1nnc2c(F)c(F)c(F)c(F)c21	Calpain I (Homo sapiens, UniProt P07384)	93000
CC(C)C[C@H](NC(=O)[C@H](CC(C)C)NC(=O)OCc1ccccc1)C(=O)COn1nnc2ccccc2c1=O	Calpain I (Homo sapiens, UniProt P07384)	46000
CC(C)C[C@H](NC(=O)OCc1ccccc1)C(=O)N[C@@H](Cc1ccccc1)C(=O)COn1nnc2c(F)c(F)ccc21	Calpain I (Homo sapiens, UniProt P07384)	67000
CC(C)CC(CC(=O)C1c2ccccc2Oc2ccccc21)C(=O)N[C@@H](CC(C)C)C(=O)COn1nnc2ccccc21 (stereo partly drawn)	Calpain I (Homo sapiens, UniProt P07384)	2700
CC(C)C[C@H](NC(=O)OCc1ccccc1)C(=O)N[C@@H](Cc1ccccc1)C(=O)COn1nnc2ncccc21	Calpain I (Homo sapiens, UniProt P07384)	57000
CC(C)C[C@H](NC(=O)[C@H](CC(C)C)NC(=O)OCc1ccccc1)C(=O)COn1nnc2ccccc21	Calpain I (Homo sapiens, UniProt P07384)	175000
CC(C)C[C@H](NC(=O)OCc1ccccc1)C(=O)N[C@@H](Cc1ccccc1)C(=O)COn1nnc2ccc(F)cc21	Calpain I (Homo sapiens, UniProt P07384)	50000
CC(C)C[C@H](NC(=O)OCc1ccccc1)C(=O)N[C@@H](Cc1ccccc1)C(=O)COn1nnc2c(Cl)cc(Cl)c(Cl)c21	Calpain I (Homo sapiens, UniProt P07384)	1800
Cc1cc2nnn(OCC(=O)[C@H](Cc3ccccc3)NC(=O)[C@H](CC(C)C)NC(=O)OCc3ccccc3)c2cc1Cl	Calpain I (Homo sapiens, UniProt P07384)	98000
Cc1cc2c(cc1Cl)nnn2OCC(=O)[C@H](Cc1ccccc1)NC(=O)[C@H](CC(C)C)NC(=O)OCc1ccccc1	Calpain I (Homo sapiens, UniProt P07384)	116000
CC(C)CC(CC(=O)C1c2ccccc2Oc2ccccc21)C(=O)N[C@@H](Cc1ccccc1)C(=O)COn1nnc2ccccc21 (stereo partly drawn)	Calpain I (Homo sapiens, UniProt P07384)	46000

* * *

List of kinact/KI values.
Target: Cathepsin L (Homo sapiens, UniProt P07711)
Construct: purchased Calbiochem 219402
Sequence (P07711 114-333): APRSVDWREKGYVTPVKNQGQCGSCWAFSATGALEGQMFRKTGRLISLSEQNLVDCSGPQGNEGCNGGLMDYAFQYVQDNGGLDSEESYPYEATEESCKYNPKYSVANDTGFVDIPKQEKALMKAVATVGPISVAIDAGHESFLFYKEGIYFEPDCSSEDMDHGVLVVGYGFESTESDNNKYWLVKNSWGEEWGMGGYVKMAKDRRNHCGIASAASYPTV
Assay: Inhibition and rate of inactivation of cathepsin L (Cbz-Phe-Arg-AMC hydrolysis)
Assay type: biochemical
Conditions: pH 6.0, 0.006 mM substrate, read-out: k2 (second order rate constant of inactivation), B = Cathepsin L

inputSmiles	unitAbbrev	kinact/KI
CC(C)C[C@H](NC(=O)OCc1ccccc1)C(=O)N[C@@H](Cc1ccccc1)C(=O)COn1nnc2ccccc21	M⁻¹ s⁻¹	100000
CC(C)C[C@H](NC(=O)OCc1ccccc1)C(=O)N[C@@H](Cc1ccccc1)C(=O)COn1nnc2ccccc2c1=O	M⁻¹ s⁻¹	70000
CC(C)C[C@H](NC(=O)OCc1ccccc1)C(=O)N[C@@H](Cc1ccccc1)C(=O)COn1nnc2cccnc21	M⁻¹ s⁻¹	40000
CC[C@H](NC(=O)[C@H](CC(C)C)NC(=O)OCc1ccccc1)C(=O)COn1nnc2ccccc21	M⁻¹ s⁻¹	3e+06

* * *

Molecular target: α-chymotrypsin (Bos taurus)
Construct: purchased Sigma Chem. Co. C-3142
Test: Inhibition of the serine protease α-chymotrypsin (Succ-Ala-Ala-Pro-Phe-AMC hydrolysis)
Assay type: biochemical
Conditions: pH 7.5, 0.03 mM substrate

molecule	testSystem	inhibition at 10 µM / %
CC(C)C[C@H](NC(=O)OCc1ccccc1)C(=O)N[C@@H](Cc1ccccc1)C(=O)COn1nnc2ccccc2c1=O	α-chymotrypsin (Bos taurus)	82
CC(C)C[C@H](NC(=O)OCc1ccccc1)C(=O)N[C@@H](Cc1ccccc1)C(=O)COn1nnc2ccc(C(F)(F)F)cc21	α-chymotrypsin (Bos taurus)	99
CC(C)CC(CC(=O)C1c2ccccc2Oc2ccccc21)C(=O)N[C@@H](Cc1ccccc1)C(=O)COn1nnc2ccccc21 (some centres unmarked)	α-chymotrypsin (Bos taurus)	100
CC(C)CC(CC(=O)C1c2ccccc2Oc2ccccc21)C(=O)N[C@@H](CC(C)C)C(=O)COn1nnc2ccccc21 (some centres unmarked)	α-chymotrypsin (Bos taurus)	100
CC(C)C[C@H](NC(=O)OCc1ccccc1)C(=O)N[C@@H](Cc1ccccc1)C(=O)COn1nnc2ccccc21	α-chymotrypsin (Bos taurus)	86

* * *

List of kinact/KI values.
Molecular target: Cathepsin B (Homo sapiens)
Construct: purchased Calbiochem 219364
Assay: Inhibition and rate of inactivation of cathepsin B (Cbz-Phe-Arg-AMC hydrolysis)
Type: biochemical
Details: pH 6.0, 0.1 mM substrate, read-out: k2 (second order rate constant of inactivation), C = Cathepsin B

compound	kinact/KI
CC[C@H](NC(=O)[C@H](CC(C)C)NC(=O)OCc1ccccc1)C(=O)COn1nnc2ccccc21	443000 M⁻¹ s⁻¹
CC(C)CC(CC(=O)C1c2ccccc2Oc2ccccc21)C(=O)N[C@@H](Cc1ccccc1)C(=O)COn1nnc2ccccc21 (stereo partly shown)	55000 M⁻¹ s⁻¹
Cc1cc2c(cc1Cl)nnn2OCC(=O)[C@H](Cc1ccccc1)NC(=O)[C@H](CC(C)C)NC(=O)OCc1ccccc1	29000 M⁻¹ s⁻¹
CC(C)C[C@H](NC(=O)OCc1ccccc1)C(=O)N[C@@H](Cc1ccccc1)C(=O)COn1nnc2ccccc2c1=O	7000 M⁻¹ s⁻¹
CC(C)CC(CC(=O)C1c2ccccc2Oc2ccccc21)C(=O)N[C@@H](CC(C)C)C(=O)COn1nnc2ccccc21 (stereo partly shown)	48000 M⁻¹ s⁻¹
CC(C)C[C@H](NC(=O)OCc1ccccc1)C(=O)N[C@@H](Cc1ccccc1)C(=O)COn1nnc2cc(Cl)c(Cl)cc21	115000 M⁻¹ s⁻¹
CC(C)C[C@H](NC(=O)[C@H](CC(C)C)NC(=O)OCc1ccccc1)C(=O)COn1nnc2ccccc21	19000 M⁻¹ s⁻¹
CC(C)C[C@H](NC(=O)OCc1ccccc1)C(=O)N[C@@H](Cc1ccccc1)C(=O)COn1nnc2ccc(C(F)(F)F)cc21	18000 M⁻¹ s⁻¹
CC(C)C[C@H](NC(=O)OCc1ccccc1)C(=O)N[C@@H](Cc1ccccc1)C(=O)COn1nnc2ccc(-c3ccccc3)cc21	16000 M⁻¹ s⁻¹
Cc1cc2nnn(OCC(=O)[C@H](Cc3ccccc3)NC(=O)[C@H](CC(C)C)NC(=O)OCc3ccccc3)c2cc1Cl	28000 M⁻¹ s⁻¹
CCc1cc2c(cc1Cl)nnn2OCC(=O)[C@H](Cc1ccccc1)NC(=O)[C@H](CC(C)C)NC(=O)OCc1ccccc1	30000 M⁻¹ s⁻¹
CC(C)C[C@H](NC(=O)OCc1ccccc1)C(=O)N[C@@H](Cc1ccccc1)C(=O)COn1nnc2c(Cl)cc(Cl)c(Cl)c21	10000 M⁻¹ s⁻¹
CC(C)C[C@H](NC(=O)OCc1ccccc1)C(=O)N[C@@H](Cc1ccccc1)C(=O)COn1nnc2c(F)c(F)ccc21	300000 M⁻¹ s⁻¹
CC(C)C[C@H](NC(=O)OCc1ccccc1)C(=O)N[C@@H](Cc1ccccc1)C(=O)COn1nnc2ccccc21	117000 M⁻¹ s⁻¹
CC(C)C[C@H](NC(=O)OCc1ccccc1)C(=O)N[C@@H](Cc1ccccc1)C(=O)COn1nnc2cccnc21	107000 M⁻¹ s⁻¹
COc1ccc2nnn(OCC(=O)[C@H](Cc3ccccc3)NC(=O)[C@H](CC(C)C)NC(=O)OCc3ccccc3)c2c1	52000 M⁻¹ s⁻¹
